Taken from the supplement of paper PMC11451515.

Parameter: cell viability. Scope: all listed entries.
# System: NOMO1
# testDescription: cell viability relative to DMSO control; higher = less cytotoxic
# conditionContext: RPMI 5 mM glucose + 10% FBS; 48 h; 0.0632 µM
Mention the unit after the number when you answer.

1) Cn1cnc2c1c(=O)[nH]c(=O)n2C    97%
2) C[S+](=O)([O-])N1CCc2c(-c3cnc(N)nc3)nc(N3CCOCC3)nc21    102%
3) FC(F)c1nc2ccccc2n1-c1nc(N2CCOCC2)nc(N2CCOCC2)n1    78%

query: Any idea what its cell viability is? The compound is C\C1=C(\C=C(C#N)/C(=O)N1)C2=C[N]3C=CN=C3C=C2
result: 84.5%

query: # input compound: C[C@@H]\1CC(=O)N\N=C1C2=CC=C(NN=C(C#N)C#N)C=C2 ; wanted: its cell viability
result: 87.9%

query: Consider the compound OC1=CC2=C(C(=C1)O)C(=O)\C=C(/O2)C3=CC=CC=C3 and give its measured cell viability.
result: 100%
